# Tested on: Euschistus heros (Neotropical Brown Stink Bug)
# procedure.text: Euschistus heros (Neotropical Brown Stink Bug): Feeding/contact activity
# Format: in vivo
# test.context: 120 h, application rate of 200 ppm, N2 nymphs on soybean leaves, assessed 5 days after infestation, read-out: control (mortality)
Here the recorded mortality at 200 ppm is given for each entry.

Below are worked cases with known answers.
Cn1c(C(F)(F)C(F)(F)F)cc(Cl)c1-n1cc(-c2ccc(Cl)c(C(=O)NC3(C#N)CC3)c2)cn1 [Compound 33]	≥ 80%
N#CC1(NC(=O)c2cc(-c3cnn(-c4c(Br)cc(C(F)(C(F)(F)F)C(F)(F)F)n4CC(F)(F)F)c3)ccc2Cl)CC1 [Compound 26]	≥ 80%

Now for another entry.
[in] Kindly state the measured mortality at 200 ppm obtained for Cn1c(C(F)(C(F)(F)F)C(F)(F)F)cc(C(N)=S)c1-n1cc(-c2ccc(Cl)c(C(=O)NC3(C#N)CC3)c2)cn1 [Compound 23] with Euschistus heros (Neotropical Brown Stink Bug).
[out] ≥ 80%

====

# Test system: Euschistus heros (Neotropical Brown Stink Bug)
# procedure.text: Euschistus heros (Neotropical Brown Stink Bug): Feeding/contact activity
# Assay type: in vivo
# test.context: 120 h, application rate of 200 ppm, N2 nymphs on soybean leaves, assessed 5 days after infestation, read-out: control (mortality)
Collected mortality at 200 ppm values appear next to each entry.

These solved cases illustrate the format of a correct answer.
CN(C(=O)c1cc(-c2cnn(-c3ccc(C(F)(C(F)(F)F)C(F)(F)F)n3C3CC3)c2)ccc1Cl)C1(C#N)CC1	≥ 80%
Cn1c(-n2cc(-c3ccc(Cl)c(C(=O)NC4(C#N)CC4)c3)cn2)ccc1C(F)(C(F)(F)F)C(F)(F)C(F)(F)F (stereo not drawn)	≥ 80%

// below: mortality at 200 ppm requested for another compound
[in] What value of mortality at 200 ppm has been reported for the following compound? CC(C)(C)n1c(C(F)(C(F)(F)F)C(F)(F)F)cc(Br)c1-n1cc(-c2ccc(Cl)c(C(=O)NC3(C#N)CC3)c2)cn1
[out] ≥ 80%

====

# System: Euschistus heros (Neotropical Brown Stink Bug)
# procedure.text: Euschistus heros (Neotropical Brown Stink Bug): Feeding/contact activity
# Assay type: in vivo
# test.context: 120 h, application rate of 200 ppm, N2 nymphs on soybean leaves, assessed 5 days after infestation, read-out: control (mortality)
# Description: Euschistus heros (Neotropical Brown Stink Bug): Feeding/contact activity Soybean leaves on agar in 24-well microtiter plates were sprayed with aqueous test solutions prepared from 10,000 ppm DMSO stock solutions. After drying the leaves were infested with N2 nymphs. The samples were assessed for mortality 5 days after infestation.
reported.metric: mortality at 200 ppm

CC(C)n1c(C(F)(C(F)(F)F)C(F)(F)F)cc(Br)c1-n1cc(-c2ccc(Cl)c(C(=O)NC3(C#N)CC3)c2)cn1	≥ 80%

[in] Any idea what its mortality at 200 ppm is? The compound is Cn1c(C(F)(C(F)(F)F)C(F)(F)F)cc(C#N)c1-n1cc(-c2ccc(Cl)c(C(=O)NC3(C#N)CC3)c2)cn1
[out] ≥ 80%

[in] What does the data say about its mortality at 200 ppm? Entry: Cc1cc(C(F)(C(F)(F)F)C(F)(F)F)n(C)c1-n1cc(-c2ccc(Cl)c(C(=O)NC3(C#N)CC3)c2)cn1
[out] ≥ 80%

[in] Given the compound Cn1c(C(F)(C(F)(F)F)C(F)(F)F)cc(C(F)(F)F)c1-n1cc(-c2ccc(Cl)c(C(=O)NC3(C#N)CC3)c2)cn1 , what is its reported mortality at 200 ppm?
[out] ≥ 80%

The reported numbers originate from patent US11459318B2.
